# Measured on: JAK2 (Homo sapiens)
# Construct: host or cells: baculovirus expression system
# Sequence (O60674 whole entry): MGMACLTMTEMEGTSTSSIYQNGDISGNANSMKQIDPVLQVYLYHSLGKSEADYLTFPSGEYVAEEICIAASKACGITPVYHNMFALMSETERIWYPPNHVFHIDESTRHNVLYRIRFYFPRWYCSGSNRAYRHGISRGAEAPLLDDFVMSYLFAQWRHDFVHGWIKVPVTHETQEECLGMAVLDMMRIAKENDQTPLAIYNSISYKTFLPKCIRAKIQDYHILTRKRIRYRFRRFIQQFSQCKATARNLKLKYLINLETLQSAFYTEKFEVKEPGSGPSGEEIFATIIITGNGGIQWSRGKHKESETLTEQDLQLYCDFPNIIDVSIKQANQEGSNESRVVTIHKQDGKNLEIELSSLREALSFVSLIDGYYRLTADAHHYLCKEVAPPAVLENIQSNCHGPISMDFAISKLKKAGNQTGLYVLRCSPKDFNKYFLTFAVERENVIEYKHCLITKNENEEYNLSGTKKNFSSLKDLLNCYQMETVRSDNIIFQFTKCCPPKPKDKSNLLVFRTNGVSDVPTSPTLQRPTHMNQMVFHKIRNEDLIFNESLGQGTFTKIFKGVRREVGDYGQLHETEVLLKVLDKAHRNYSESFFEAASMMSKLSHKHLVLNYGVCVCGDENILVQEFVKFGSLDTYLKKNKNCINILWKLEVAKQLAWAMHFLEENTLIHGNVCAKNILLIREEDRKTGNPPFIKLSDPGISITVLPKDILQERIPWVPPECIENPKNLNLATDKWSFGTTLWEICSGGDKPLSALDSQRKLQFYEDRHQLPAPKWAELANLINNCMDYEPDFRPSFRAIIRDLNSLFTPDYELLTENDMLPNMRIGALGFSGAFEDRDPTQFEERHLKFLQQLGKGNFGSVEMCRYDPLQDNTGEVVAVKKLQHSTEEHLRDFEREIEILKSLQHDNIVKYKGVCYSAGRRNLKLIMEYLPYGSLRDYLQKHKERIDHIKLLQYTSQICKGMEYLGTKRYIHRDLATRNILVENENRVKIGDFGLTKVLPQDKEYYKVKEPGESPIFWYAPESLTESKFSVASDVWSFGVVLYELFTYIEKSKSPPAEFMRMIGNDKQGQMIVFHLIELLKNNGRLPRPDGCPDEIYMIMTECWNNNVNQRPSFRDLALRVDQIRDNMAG
# Method: Recombinant Human JAK2 Kinase Assay (TRF)
# Format: biochemical
# Assay context: JAK2 kinase inhibition, 0.2 μM ATP; read-out: JAK2 Potency
pIC50: −log10 of the molar value.
Readout label: pIC50

Study these solved cases before continuing.
CN(c1ccccc1-c1ccc2cnc(Nc3ccc4c(c3)N(S(C)(=O)=O)CCC4)nn12)S(C)(=O)=O [Example 1062] :: > 7.00
COc1cc([C@H]2CC[C@@H](N3CCOCC3)CC2)ccc1Nc1ncc2ccc(-c3ccccc3N(C)S(C)(=O)=O)n2n1 [Example 1249] :: 5.00 to 6.00

Param item = c1cc2c(c(-c3ccc4cnc(Nc5cnc6c(N7CCNCC7)cccc6c5)nn34)c1)OCC2 [Example 710] ; retrieve measured pIC50.
5.00 to 6.00

Param item = COc1cc(CN2CCOCC2)ccc1Nc1ncc2ccc(-c3ccccc3OC)n2n1 [Example 1220] ; retrieve measured pIC50.
6.00 to 7.00
